test: Host cell cytotoxicity assay (Cell-Titer Glo), HFF cells; type: cell-based, human; settings: human
observable: viability at 2.5 µM (%)
Report the figure in % without appending any unit label.

QUERY: Which value of viability at 2.5 µM has been reported for COC(=O)C1=C(C)NC(C)=C(C(=O)OCCCN2CCC(c3ccccc3)(c3ccccc3)CC2)[C@H]1c1cccc([N+](=O)[O-])c1 in the records?
RESULT: 99

---

Listed here: items and their measured viability at 48 h, 2.5 µM.
assay: Host cell cytotoxicity assay (Cell-Titer Glo), HFF cells; assay type: cell-based, human; details: human, Host cell viability (%)
Report the figure in % without appending any unit label.

Worked set:
[[record]]
compound = "O=C(/C=C/c1ccc(O)c(O)c1)c1ccc(O)cc1O"
reading = 102

[[record]]
compound = "O=c1[nH]c2ccccc2n1CCCN1CCC(n2c(=O)[nH]c3cc(Cl)ccc32)CC1"
reading = 94

[[record]]
compound = "COc1ccc2[nH]c([S+]([O-])Cc3ncc(C)c(OC)c3C)nc2c1 (centres unmarked)"
reading = 100

[[record]]
compound = "OCCN1CCN(CCCN2c3ccccc3Sc3ccc(C(F)(F)F)cc32)CC1"
reading = 104

[[record]]
compound = "OCCN1CCN(CCCN2c3ccccc3Sc3ccc(Cl)cc32)CC1"
reading = 95

[[record]]
compound = "OC(c1cc(C(F)(F)F)nc2c(C(F)(F)F)cccc12)C1CCCCN1 (centres unmarked)"
reading = 94

[[record]]
compound = "O=C1[C@H]2CCCC[C@H]2C(=O)N1CCCCN1CCN(c2nsc3ccccc23)CC1"
reading = 102


Continue with the compound presented below.
QUERY: Which value of viability at 48 h, 2.5 µM has been reported for Nc1ccccc1NC(=O)c1ccc(CNC(=O)OCc2cccnc2)cc1 in the records?
RESULT: 92

---

experiment: Host cell cytotoxicity assay (Cell-Titer Glo), Vero cells; type: cell-based; conditions: African green monkey; 10 μM, 48 h, Vero cells; DMSO = 100%; read-out: Host Viability (%)
Listed here: items and their measured viability at 10 µM.
Report the figure in % without appending any unit label.

Worked set:
[[record]]
compound = "Cc1coc2c1C(=O)C(=O)c1c-2ccc2c1CCCC2(C)C [Tanshinone IIA]"
observable = "viability at 10 µM"
reading = 83

[[record]]
compound = "Clc1ccc(C(Cn2ccnc2)OCc2c(Cl)cccc2Cl)c(Cl)c1 (stereo not drawn) [Isoconazole]"
observable = "viability at 10 µM"
reading = 101


Continue with the compound presented below.
QUERY: Which value of viability at 10 µM has been reported for COc1ccc(S(=O)(=O)N(CC(=O)NO)CC(C)C)cc1 in the records?
RESULT: 98

---

Assay: Host cell cytotoxicity assay (Cell-Titer Glo), HFF cells
Assay type: cell-based, human
Details: human
Procedure: Vero cells and HFF cells were both used as host cells because both cell types were used for the parasite screening. After incubation for 48 h in DMEM supplemented with 5% FBS, L-glutamine, penicillin, and streptomycin, cell viabilities were measured by using a Cell-Titer Glo kit (Promega) following the manufacturer’s instructions. Control wells were treated with DMSO alone in culture medium to calculate the 100% viability for each cell type.
observable: viability at 25 µM
Quick note: number first, unit second.

QUERY: Which value of viability at 25 µM has been reported for COC(=O)C1=C(C)NC(C)=C(C(=O)OCCCN2CCC(c3ccccc3)(c3ccccc3)CC2)[C@H]1c1cccc([N+](=O)[O-])c1 [Niguldipine] in the records?
RESULT: 84%

---

Listed here: items and their measured inhibition at 2.5 µM.
Tested on: RH-2F tachyzoites (type I strain) in HFF cells
Assay: Confirmatory screening: RH-2F β-galactosidase growth assay in HFF cells
Type: cell-based, Toxoplasma gondii
Conditions: Toxoplasma gondii, HFF, 48 h, 2.5 μM, 48 h, RH-2F in HFF; compared with 10 μM pyrimethamine; read-out: Parasite inhibition (%)
Procedure: In the confirmatory screening, we utilize an RH strain β-galactosidase reporter parasite termed RH-2F (a type I strain). Briefly, RH-2F parasites were purified from freshly lysed infected host cells and used to infect confluent HFF cells cultured in 96-well plates. Five hundred parasites were added to each well, along with each test compound and 50 μL of culture medium. Plates were then incubated for 10 min at room temperature followed by an incubation at 37°C for 48 h in a CO2 incubator. […]

Worked set:
[[record]]
structure_notation = "OCCN1CCN(CCCN2c3ccccc3Sc3ccc(Cl)cc32)CC1"
system_name = "RH-2F tachyzoites (type I strain) in HFF cells"
reading = "-6.8%"

[[record]]
structure_notation = "O=C1[C@H]2CCCC[C@H]2C(=O)N1CCCCN1CCN(c2nsc3ccccc23)CC1"
system_name = "RH-2F tachyzoites (type I strain) in HFF cells"
reading = "4.5%"


QUERY: Which measured inhibition at 2.5 µM belongs to O=C(/C=C/c1ccc(O)c(O)c1)c1ccc(O)cc1O , tested on RH-2F tachyzoites (type I strain) in HFF cells?
RESULT: -11%

QUERY: Which measured inhibition at 2.5 µM belongs to Nc1ccccc1NC(=O)c1ccc(CNC(=O)OCc2cccnc2)cc1 , tested on RH-2F tachyzoites (type I strain) in HFF cells?
RESULT: -20%

QUERY: Which measured inhibition at 2.5 µM belongs to Cc1coc2c1C(=O)C(=O)c1c-2ccc2c1CCCC2(C)C , tested on RH-2F tachyzoites (type I strain) in HFF cells?
RESULT: > 50%

QUERY: Which measured inhibition at 2.5 µM belongs to O=c1[nH]c2ccccc2n1CCCN1CCC(n2c(=O)[nH]c3cc(Cl)ccc32)CC1 , tested on RH-2F tachyzoites (type I strain) in HFF cells?
RESULT: -7.2%

---

experiment: Host cell cytotoxicity assay (Cell-Titer Glo), HFF cells; type: cell-based, human; details: human, HFF cells, 25 μM, 48 h, HFF cells; compared with DMSO; read-out: Host cell viability (%)
observable: viability at 48 h, 25 µM
Quick note: number first, unit second.

QUERY: Which value of viability at 48 h, 25 µM has been reported for CC(C)C[C@H]1C(=O)N2CCC[C@H]2[C@]2(O)O[C@](NC(=O)[C@@H]3C=C4c5cccc6[nH]c(Br)c(c56)C[C@H]4N(C)C3)(C(C)C)C(=O)N12 in the records?
RESULT: 93%

---

experiment: Host cell cytotoxicity assay (Cell-Titer Glo), Vero cells; type: cell-based; conditions: African green monkey
observable: viability at 10 µM (%)
Report the figure in % without appending any unit label.

QUERY: Which value of viability at 10 µM has been reported for COC(=O)C1=C(C)NC(C)=C(C(=O)OCCCN2CCC(c3ccccc3)(c3ccccc3)CC2)[C@H]1c1cccc([N+](=O)[O-])c1 in the records?
RESULT: 77

---

test system: RH-2F tachyzoites (type I strain) in HFF cells; experiment: Confirmatory screening: RH-2F β-galactosidase growth assay in HFF cells; assay type: cell-based, Toxoplasma gondii; conditions: Toxoplasma gondii, HFF, 48 h, 25 μM, 48 h, RH-2F in HFF; compared with 10 μM pyrimethamine; read-out: Parasite inhibition (%)
Listed here: items and their measured inhibition at 25 µM.

[[record]]
compound = "Cc1coc2c1C(=O)C(=O)c1c-2ccc2c1CCCC2(C)C [Tanshinone IIA]"
reading = "112%"


QUERY: Which value of inhibition at 25 µM has been reported for O=C(/C=C/c1ccc(O)c(O)c1)c1ccc(O)cc1O [Butein] in the records?
RESULT: 110%

QUERY: Which value of inhibition at 25 µM has been reported for Nc1ccccc1NC(=O)c1ccc(CNC(=O)OCc2cccnc2)cc1 [Entinostat] in the records?
RESULT: 60%

QUERY: Which value of inhibition at 25 µM has been reported for O=C1[C@H]2CCCC[C@H]2C(=O)N1CCCCN1CCN(c2nsc3ccccc23)CC1 [Perospirone] in the records?
RESULT: 59%

---

test: Host cell cytotoxicity assay (Cell-Titer Glo), Vero cells; format: cell-based; settings: African green monkey
Where a SMILES comes first, the peptide text is derived from it. The star is where a group is joined. Boc = CC(C)(C)OC(=O)*
Please note: viability at 48 h, 10 µM exactly at 90% is false (0). Only values below 90% get true (1).

[[record]]
molecule = "O=C(/C=C/c1ccc(O)c(O)c1)c1ccc(O)cc1O"
discrete_label = "false (0)"

[[record]]
molecule = "OCCN1CCN(CCCN2c3ccccc3Sc3ccc(C(F)(F)F)cc32)CC1"
discrete_label = "true (1)"

[[record]]
molecule = "O=c1[nH]c2ccccc2n1CCCN1CCC(n2c(=O)[nH]c3cc(Cl)ccc32)CC1"
discrete_label = "false (0)"


We now examine a further molecule.
QUERY: Lab log: compare recorded viability at 48 h, 10 µM with 90%; is it strictly lower for CC(C)[C@H](NC(=O)CNC(=O)OC(C)(C)C)C(=O)N[C@H](C=O)C(C)C (Boc-Gly-Val-Val-aldehyde) ?
RESULT: false (0)

Values from paper PMC5469451
